Details: in toluene, 288.15 K
ATTRIBUTE MEASURED: solubility (mole fraction)
Answer field: number only, no words.

# lookup: solubility (mole fraction) of CCOc1ccc(C=O)cc1O
0.0037

---

Details: in acetonitrile, 323.15 K
ATTRIBUTE MEASURED: solubility (mole fraction)
// return a plain number; no unit text

GET /values?readout=solubility (mole fraction)&item= CCOc1ccc(C=O)cc1O
0.0551

---

Conditions: in acetonitrile, 318.15 K
ATTRIBUTE MEASURED: solubility (mole fraction)
// return a plain number; no unit text

For the compound shown here, CCOc1ccc(C=O)cc1O , give the reported solubility (mole fraction).
0.0406

Every entry's value here was drawn from BigSolDB 2.1.
